Molecular target: GST-Ap-NF-kB RHD (Exaiptasia pallida (Aiptasia), UniProt A0A913YAJ5 2-422)
Sequence: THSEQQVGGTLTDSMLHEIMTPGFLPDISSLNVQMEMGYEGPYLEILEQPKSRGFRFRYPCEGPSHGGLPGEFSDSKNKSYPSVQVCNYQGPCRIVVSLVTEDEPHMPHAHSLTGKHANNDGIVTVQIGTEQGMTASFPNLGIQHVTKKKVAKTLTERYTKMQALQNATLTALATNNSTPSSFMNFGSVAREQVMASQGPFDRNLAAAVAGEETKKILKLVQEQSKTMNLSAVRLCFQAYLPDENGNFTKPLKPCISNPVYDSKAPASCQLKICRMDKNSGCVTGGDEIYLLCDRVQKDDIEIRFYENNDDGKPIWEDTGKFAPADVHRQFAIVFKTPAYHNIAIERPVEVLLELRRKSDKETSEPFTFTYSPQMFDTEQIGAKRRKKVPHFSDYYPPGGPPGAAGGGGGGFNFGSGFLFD
Experiment: protein-binding microarray (PBM); PBM: ~300 nM protein, 6 mM HEPES pH 7.8, 80 mM KCl, 0.5 mM EDTA, 0.5 mM EGTA, 6% glycerol, 35 ng/ul poly-dIdC, 1% milk, 1 h, room temperature; high values mean tight binding
Conditions: dsDNA, one strand shown
Response field class: enum, chosen by comparing binding signal against 1 (below 4 z-score), 2 (4 z-score to below 5 z-score), 3 (5 z-score or more)

Using the reported binding signal, which band applies to CCGATTAACATCAGGGGGTTAAATGATGTTAATCGGGTCTTGATTCGCTTGACGCTGCTG ?
2

Using the reported binding signal, which band applies to CCGATTAACATCAGAGAATTCCCTGATGTTAATCGGGTCTTGATTCGCTTGACGCTGCTG ?
3

----------
Target: GST-Nv-NF-kB (Cys allele) (Nematostella vectensis, UniProt E5G601 2-411)
Sequence: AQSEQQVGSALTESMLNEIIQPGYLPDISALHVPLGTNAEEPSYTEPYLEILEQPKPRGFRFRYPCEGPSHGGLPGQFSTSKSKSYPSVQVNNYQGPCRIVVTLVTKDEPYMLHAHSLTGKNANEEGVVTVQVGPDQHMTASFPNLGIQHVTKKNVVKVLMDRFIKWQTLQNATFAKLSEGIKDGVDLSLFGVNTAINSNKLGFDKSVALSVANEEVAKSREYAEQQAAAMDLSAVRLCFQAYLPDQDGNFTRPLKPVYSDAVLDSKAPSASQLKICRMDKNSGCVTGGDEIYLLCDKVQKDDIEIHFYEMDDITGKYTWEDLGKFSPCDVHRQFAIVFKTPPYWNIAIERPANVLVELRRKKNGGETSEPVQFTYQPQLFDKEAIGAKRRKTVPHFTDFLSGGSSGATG
Experiment: protein-binding microarray (PBM); PBM: ~300 nM protein, 6 mM HEPES pH 7.8, 80 mM KCl, 0.5 mM EDTA, 0.5 mM EGTA, 6% glycerol, 35 ng/ul poly-dIdC, 1% milk, 1 h, room temperature; Ap Aiptasia and Nv Nematostella (sea anemones) / Co Capsaspora / Aq Amphimedon (sponge) / Dm Drosophila / Hu human; RHD is the Rel homology domain; high values mean tight binding
Details: dsDNA, one strand shown
observed.property: binding signal (z-score)
Quick reminder: number only, in z-score, skip the unit.

Lab note: measured binding signal of CCGATTAACATCAGGGGGGCGCATGATGTTAATCGGGTCTTGATTCGCTTGACGCTGCTG was 3.14

Lab note: measured binding signal of CCGATTAACATCAGGGGACTTCATGATGTTAATCGGGTCTTGATTCGCTTGACGCTGCTG was 5.76

Lab note: measured binding signal of CCGATTAACATCAAGGGGGTTCCTGATGTTAATCGGGTCTTGATTCGCTTGACGCTGCTG was 6.77

Lab note: measured binding signal of CCGATTAACATCAAATAATTCCCTGATGTTAATCGGGTCTTGATTCGCTTGACGCTGCTG was 7.21

Lab note: measured binding signal of CCGATTAACATCAATAACCCCCCTGATGTTAATCGGGTCTTGATTCGCTTGACGCTGCTG was 5.55

Lab note: measured binding signal of CCGATTAACATCAAAGTTTCCCATGATGTTAATCGGGTCTTGATTCGCTTGACGCTGCTG was 4.29

Lab note: measured binding signal of CCGATTAACATCACGTACTTCCCTGATGTTAATCGGGTCTTGATTCGCTTGACGCTGCTG was 1.92

Lab note: measured binding signal of CCGATTAACATCAAATTCCCCCCTGATGTTAATCGGGTCTTGATTCGCTTGACGCTGCTG was 8.77

Lab note: measured binding signal of CCGATTAACATCACAAATTACCCTGATGTTAATCGGGTCTTGATTCGCTTGACGCTGCTG was 5.32

Lab note: measured binding signal of CCGATTAACATCAGGGGATATAATGATGTTAATCGGGTCTTGATTCGCTTGACGCTGCTG was 4.66

New cases:
Lab note: measured binding signal of CCGATTAACATCACCTTTTTCCCTGATGTTAATCGGGTCTTGATTCGCTTGACGCTGCTG was 4.53
